- run_description: Volume of distribution at steady state in mouse at 5 mg/kg, iv
- Assay type: ADME, organism-based
- test_context: in vivo, read-out: Vdss
experimental_readout: Vd (L/kg)

O=C(CC1(c2ccccc2)C2CC3CC1CC(C2)C3O)N1CC(O)C1 (stereo in doubt; form 2); 2

###

- run_description: Metabolic stability in human liver microsomes assessed as parent compound remaining after 10 mins
- Format: ADME, microsome
- test_context: liver microsomes, read-out: Stability
experimental_readout: remaining at 10 min (%)

O=C(CC1(c2ccc(F)cc2)C2CC3CC1CC(C2)C3O)N1CC(O)C1 (racemic); 95
CC1(O)C2CC3CC(C2)C(CC(=O)N2CC(O)C2)(c2ccc(F)cc2)C1C3 (racemic); 41
NC(=O)C1C2CC3CC1CC(C2)C3(CC(=O)N1CC(O)C1)c1ccc(F)cc1 (racemic); 100
O=C(CC1(c2ccc(C(F)(F)F)cc2)C2CC3CC1CC(C2)C3O)N1CC(O)C1 (racemic); 57
O=C(CC1(c2cccc(Cl)c2)C2CC3CC1CC(C2)C3O)N1CC(O)C1 (racemic); 85
O=C(CC1(c2ccccn2)C2CC3CC1CC(C2)C3O)N1CC(O)C1 (racemic); 100
O=C(CC1(c2ccncc2)C2CC3CC1CC(C2)C3O)N1CC(O)C1 (racemic); 92
O=C(CC1(c2ccccc2)C2CC3CC1CC(C2)C3O)N1CC(O)C1 (racemic) [BMS-816336]; 88
CC1(O)C2CC3CC1CC(C2)C3(CC(=O)N1CC(O)C1)c1ccc(F)cc1 (racemic); 84
O=C(CC1(c2ccc(F)cc2)C2CC3CC1CC(O)(C3)C2)N1CC(O)C1 (centres undefined); 100
O=C(CC1(c2ccc(F)cc2)C2CC3CC(C2)CC1(O)C3)N1CC(O)C1 (racemic); 25
Cc1ccccc1C1(CC(=O)N2CC(O)C2)C2CC3CC1CC(C2)C3O (racemic); 62
N#CC12CC3CC(C1)C(CC(=O)N1CC(O)C1)(c1ccc(F)cc1)C(C3)C2 (centres undefined); 62
COc1ccc(C2(CC(=O)N3CC(O)C3)C3CC4CC2CC(C3)C4O)cc1 (racemic); 98
Cc1cccc(C2(CC(=O)N3CC(O)C3)C3CC4CC2CC(C3)C4O)c1 (racemic); 84
N#Cc1ccc(C2(CC(=O)N3CC(O)C3)C3CC4CC2CC(C3)C4O)cc1 (racemic); 100
O=C(CC1(C2CCCCC2)C2CC3CC1CC(C2)C3O)N1CC(O)C1 (racemic); 100
